# Tested on: COX5A
# Set-up: species or system human, MV4-11 + K-562 + COLO205 + SK-N-BE2 + OVCAR-8
# assay_setup: read-out: apparent Kd; compound concentrations:100 nM and 1000 nM (sheet 'Samples'); n = 1
readout: potency estimated from few doses (nM)
Give the value, in units of nM, as a plain number.

Exam item: Name the recorded potency estimated from few doses for O=c1cc(N2CCOCC2)nc2n(Cc3ccccc3F)ccn12 [GSK2297428A] .
Marked response: 1300

Exam item: Name the recorded potency estimated from few doses for CN(C)C(=O)/C(C#N)=C/c1ccc(-c2nc3cnc4[nH]ccc4c3n2C2CCCCC2)o1 .
Marked response: 756

Exam item: Name the recorded potency estimated from few doses for Nc1nc(-c2ccc3c(N)n[nH]c3c2)cc(N2CCCCC2)n1 [GSK2228768A] .
Marked response: 1060

Exam item: Name the recorded potency estimated from few doses for Fc1ccc(-c2cc(-c3c[nH]nc3-c3ccccn3)ccn2)cc1 [GW680975X] .
Marked response: 132

Exam item: Name the recorded potency estimated from few doses for CN1CCC(n2cnc(-c3ccc(F)cc3)c2-c2ccnc(N)n2)CC1 .
Marked response: 656

Exam item: Name the recorded potency estimated from few doses for Cc1ccc(-n2nc(C(C)(C)C)cc2NC(=O)Nc2ccc(OCCN3CCOCC3)cc2)cc1 [BIRB0876BS] .
Marked response: 963

---

# Tested on: AKT3
# Design: species or system human, MV4-11 + K-562 + COLO205 + SK-N-BE2 + OVCAR-8
# assay_setup: read-out: apparent Kd; compound concentrations:100 nM and 1000 nM (sheet 'Samples'); n = 1
Exam item: assign Y to entries whose potency estimated from few doses is below 2000 nM and N to entries at or above 2000 nM. Note that a value of exactly 2000 nM receives N.

Exam item: State whether 2000 nM exceeds potency estimated from few doses recorded for CN(C)CCOc1ccc(-c2nc(-c3ccc4c(c3)CC/C4=N/O)c(-c3ccncc3)[nH]2)cc1 .
Marked response: Y

Exam item: State whether 2000 nM exceeds potency estimated from few doses recorded for NCC1CCC(CNc2nc(NCc3ccccc3OC(F)(F)F)ncc2[N+](=O)[O-])CC1 (stereo not shown) [BIRZ0518XX] .
Marked response: Y

Exam item: State whether 2000 nM exceeds potency estimated from few doses recorded for CCn1c(-c2nonc2N)nc2cnc(Oc3cccc(NC(=O)c4ccc(OCCN5CCOCC5)cc4)c3)cc21.Cl [GSK269962B] .
Marked response: Y

Exam item: State whether 2000 nM exceeds potency estimated from few doses recorded for O=C(Nc1c(F)cccc1F)c1cc(C(=O)c2ccccc2F)c[nH]1 [GSK1326180A] .
Marked response: Y

Exam item: State whether 2000 nM exceeds potency estimated from few doses recorded for CC(C)NC(=O)N1CC[C@H](NC2=Nc3cc(F)ccc3N(CC(F)F)c3ccc(Cl)cc32)C1 .
Marked response: Y

Exam item: State whether 2000 nM exceeds potency estimated from few doses recorded for CS(=O)(=O)CCn1c(=O)c(Oc2ccc(F)cc2F)cc2cnc(NC3CCOCC3)nc21 .
Marked response: N

Exam item: State whether 2000 nM exceeds potency estimated from few doses recorded for CCn1c(-c2nonc2N)nc2c(C#CC(C)(C)O)nc(O[C@@H](CN)c3ccccc3)cc21.O=C(O)C(F)(F)F [GSK1007102B] .
Marked response: Y

Exam item: State whether 2000 nM exceeds potency estimated from few doses recorded for Fc1ccc(-c2ncn(C3CCNCC3)c2-c2ccnc(Oc3ccc4c(c3)OCO4)n2)cc1 .
Marked response: N

Exam item: State whether 2000 nM exceeds potency estimated from few doses recorded for CNCc1ccc(-c2cc(-c3nc(-c4ccc(S(=O)(=O)C(C)C)cc4)cnc3N)on2)cc1 .
Marked response: Y

Exam item: State whether 2000 nM exceeds potency estimated from few doses recorded for NC(=O)Nc1sc(-c2ccc(F)cc2)cc1C(N)=O [GW789449X] .
Marked response: Y

---

# System: PRKCQ
# Parameters: species or system human, MV4-11 + K-562 + COLO205 + SK-N-BE2 + OVCAR-8
# assay_setup: read-out: apparent Kd; compound concentrations:100 nM and 1000 nM (sheet 'Samples'); n = 1
readout: potency estimated from few doses (µM)
Give the value, in units of µM, as a plain number.

Exam item: Name the recorded potency estimated from few doses for CNc1nc(-c2ccc3c(N)n[nH]c3c2)cc(N2C[C@@H](C(=O)Nc3ccccc3)CC[C@H]2C)n1 [GSK2298859A] .
Marked response: 1.8

Exam item: Name the recorded potency estimated from few doses for Cn1cc(C2=C(c3cn(CCCSC(=N)N)c4ccccc34)C(=O)NC2=O)c2ccccc21 [RO0318220-000] .
Marked response: 0.121

Exam item: Name the recorded potency estimated from few doses for COc1ccc(O)c(C(=O)c2ccc(C(=O)O[C@@H]3CCCNC[C@H]3NC(=O)c3ccncc3)cc2)c1F.Cl [RO0480500-002] .
Marked response: 0.769

Exam item: Name the recorded potency estimated from few doses for CCn1c(-c2nonc2N)nc2c(C#CC(C)(C)O)nc(OCCNC)cc21.Cl [GSK949675A] .
Marked response: 1.68

---

# System: CSNK1A1
# Parameters: species or system human, MV4-11 + K-562 + COLO205 + SK-N-BE2 + OVCAR-8
# assay_setup: read-out: apparent Kd; compound concentrations:100 nM and 1000 nM (sheet 'Samples'); n = 1
Record form. Attribute: potency estimated from few doses. Fill in for each entry.
Give the value, in units of nM, as a plain number.

Exam item: Name the recorded potency estimated from few doses for CC(C)N1CCC(n2cnc(-c3ccc(F)cc3)c2-c2ccnc(N)n2)CC1 .
Marked response: 158

Exam item: Name the recorded potency estimated from few doses for NC(=O)c1ccc(Oc2nccc(-c3c(-c4ccc(F)cc4)ncn3C3CCNCC3)n2)cc1 .
Marked response: 2320

Exam item: Name the recorded potency estimated from few doses for N#Cc1cccc(Nc2nccc(-c3cnn4ncccc34)n2)c1 [GW778894X] .
Marked response: 731

Exam item: Name the recorded potency estimated from few doses for C[C@@H]1CCNC(=O)c2cc3ccc(C(=O)Nc4nc5ccccc5n4CCCN(C)C)cc3n21 .
Marked response: 1000

Exam item: Name the recorded potency estimated from few doses for Cc1cccc(-c2cc(-c3c[nH]nc3-c3ccccn3)ccn2)c1 [GW679395X] .
Marked response: 1810

Exam item: Name the recorded potency estimated from few doses for CNc1cc(-c2ccc3c(N)n[nH]c3c2)nc(N)n1 [GSK2224810A] .
Marked response: 2450

Exam item: Name the recorded potency estimated from few doses for COc1ccccc1-c1cc(/C=C2\C(=O)Nc3ncc(Br)cc32)cc(Br)c1O [GW442130X] .
Marked response: 1780

Exam item: Name the recorded potency estimated from few doses for CN(C(=O)c1ccc(-c2cc(-c3c[nH]nc3-c3ccccn3)ccn2)cc1)C1CCOCC1 [GW810083X] .
Marked response: 2390

---

# System: STK16
# Parameters: species or system human, MV4-11 + K-562 + COLO205 + SK-N-BE2 + OVCAR-8
# assay_setup: read-out: apparent Kd; compound concentrations:100 nM and 1000 nM (sheet 'Samples'); n = 1
readout: potency estimated from few doses (µM)
Give the value, in units of µM, as a plain number.

Exam item: Name the recorded potency estimated from few doses for COc1cc(C=NNc2ncnc3c2cnn3-c2ccccc2)ccc1O [GW513184X] .
Marked response: 1.95

Exam item: Name the recorded potency estimated from few doses for CC(C)Oc1ccc2c(-c3ccnc(Nc4ccc(N5CCN(C)CC5)cc4)n3)cnn2n1 [GW696155X] .
Marked response: 0.0392

Exam item: Name the recorded potency estimated from few doses for CNC(=O)c1ccccc1Nc1nc(Nc2ccc(N3CCOCC3)cc2)ncc1Cl.Cl [GSK1576028A] .
Marked response: 1.77

Exam item: Name the recorded potency estimated from few doses for COc1cc[nH]c1/C=C1\C(=O)Nc2ccc(F)c(C#C[C@@H](O)[C@@H](N)[C@@H](C)O)c21 .
Marked response: 1.23

Exam item: Name the recorded potency estimated from few doses for Cc1ccc(NC(=O)CC2CC2)cc1-c1ccc(C(=O)NCC2CC2)cc1 [GW796920X] .
Marked response: 2.17

---

# System: PRKCD
# Set-up: species or system human, MV4-11 + K-562 + COLO205 + SK-N-BE2 + OVCAR-8
# assay_setup: read-out: apparent Kd; compound concentrations:100 nM and 1000 nM (sheet 'Samples'); n = 1
readout: potency estimated from few doses (nM)
Give the value, in units of nM, as a plain number.

Exam item: Name the recorded potency estimated from few doses for NCCNS(=O)(=O)c1ccc(-c2ccnc3[nH]ccc23)cc1 [GSK977617A] .
Marked response: 1080

Exam item: Name the recorded potency estimated from few doses for Cl.Cl.NCC(C(=O)Nc1cc(Br)c(-c2ccnc3[nH]ccc23)s1)c1ccccc1.NCC(C(=O)Nc1cc(Br)c(-c2ccnc3[nH]ccc23)s1)c1ccccc1 (stereo not drawn) [GSK1269851A] .
Marked response: 2130

Exam item: Name the recorded potency estimated from few doses for O=C(O)C(F)(F)F.O=c1[nH]ccc2nc(N[C@@H]3CCNC3)nc(Nc3cc(Cl)cc(Cl)c3)c12 [GSK2188764A] .
Marked response: 222

Exam item: Name the recorded potency estimated from few doses for CCn1c(-c2nonc2N)nc2cncc(C(=O)N3CC[C@H](N)C3)c21.Cl .
Marked response: 843

Exam item: Name the recorded potency estimated from few doses for O=C1NC(=O)C(N2CCc3ccccc32)=C1c1ccccc1Cl .
Marked response: 2190

Exam item: Name the recorded potency estimated from few doses for COc1ccc(C[C@@H](CN)NC(=O)c2cc(Br)c(-c3ccnc4[nH]ccc34)s2)cc1.COc1ccc(C[C@@H](CN)NC(=O)c2cc(Br)c(-c3ccnc4[nH]ccc34)s2)cc1.Cl.Cl [GSK1389063A] .
Marked response: 1750

Exam item: Name the recorded potency estimated from few doses for COc1ccc(O)c(C(=O)c2ccc(C(=O)O[C@@H]3CCCNC[C@H]3NC(=O)c3ccncc3)cc2)c1F.Cl .
Marked response: 25.7

Exam item: Name the recorded potency estimated from few doses for Cn1cc(C2=C(c3c4n(c5ccccc35)CCC(CN)CC4)C(=O)NC2=O)c2ccccc21 (stereo not drawn) .
Marked response: 31.6

Exam item: Name the recorded potency estimated from few doses for Cl.Cn1cc(C2=C(c3cn(CCCN)c4ccccc34)C(=O)NC2=O)c2ccccc21 .
Marked response: 93.3

Exam item: Name the recorded potency estimated from few doses for NCC1CCC(CNc2nc(NCc3ccccc3OC(F)(F)F)ncc2[N+](=O)[O-])CC1 (stereo not drawn) [BIRZ0518XX] .
Marked response: 648

Exam item: Name the recorded potency estimated from few doses for Cc1n[nH]c2ccc(-c3cc(OC[C@@H](N)Cc4ccccc4)cnc3-c3ccoc3)cc12.Cc1n[nH]c2ccc(-c3cc(OC[C@@H](N)Cc4ccccc4)cnc3-c3ccoc3)cc12.O=C(O)C(F)(F)F.O=C(O)C(F)(F)F [GSK507358A] .
Marked response: 1510

Exam item: Name the recorded potency estimated from few doses for CCn1c(-c2nonc2N)nc2c(C#CC(C)(C)O)nc(O[C@@H](CN)c3ccccc3)cc21.O=C(O)C(F)(F)F [GSK1007102B] .
Marked response: 173
